# Assayed system: recombinant hRIPK1 (Homo sapiens)
# Construct: Th (between GST and residue 1); purchased BPS Bioscience 40371
# Assay procedure: ADP-Glo kinase assay
# Assay type: biochemical
# Measurement conditions: ATP concentration 500 μM; GST-RIPK1 75 nM
Metric name: pIC50
Remember, pIC50 is on a log scale: it is -log10 of the molar concentration.

Query pIC50 for CN1C(=O)C(Cc2c[nH]c3ccccc23)NC1=S (stereo not shown)
5.09

---

# Assayed system: recombinant hRIPK1 (Homo sapiens, UniProt Q13546)
# Construct: Th (between GST and residue 1); purchased BPS Bioscience 40371
# Sequence (Q13546 1-327): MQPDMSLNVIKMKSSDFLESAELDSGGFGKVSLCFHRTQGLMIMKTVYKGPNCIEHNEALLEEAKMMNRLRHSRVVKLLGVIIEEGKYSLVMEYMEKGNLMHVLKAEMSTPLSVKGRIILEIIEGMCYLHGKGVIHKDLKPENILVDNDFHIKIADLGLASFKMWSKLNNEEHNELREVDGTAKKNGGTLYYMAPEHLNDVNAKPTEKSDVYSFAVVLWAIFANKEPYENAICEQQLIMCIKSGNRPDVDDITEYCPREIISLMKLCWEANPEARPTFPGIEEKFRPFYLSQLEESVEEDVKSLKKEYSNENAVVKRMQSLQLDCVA
# Assay procedure: ADP-Glo kinase assay
# Assay type: biochemical
# Measurement conditions: ATP concentration 10 μM; GST-RIPK1 75 nM
Metric name: pIC50
// pIC50 is dimensionless: -log10 of concentration (M)

Item CN1C(=O)C(Cc2c[nH]c3ccccc23)NC1=S (stereo not shown) : provide pIC50
5.57
